system: SK-MEL-5; assay: NCI tumour cell line growth inhibition, 48 h
Active and inactive are the calls of the source. Rule as the data show it: active = GI50 up to about 1.1 µM and inactive = higher.
# GI50 per entry

[
  {
    "molecule": "CCOC(=O)c1cc2c(cn1)[nH]c1cccc(N)c12",
    "GI50": "> 100 µM (inactive)"
  },
  {
    "molecule": "O=C1C[C@@]23CCC4(CC2=CCC[C@H]3O1)OCCO4",
    "GI50": "> 100 µM (inactive)"
  },
  {
    "molecule": "Cc1ccc(Cc2nn(C)c(=O)n2N)cc1",
    "GI50": "> 100 µM (inactive)"
  },
  {
    "molecule": "N/C(=N\\O)N/N=C/c1ccc2c(c1)OCO2",
    "GI50": "15.4 µM (inactive)"
  },
  {
    "molecule": "O=c1cc(/N=N\\c2ccc(Br)cc2)[nH]c(=S)[nH]1",
    "GI50": "57.1 µM (inactive)"
  },
  {
    "molecule": "CNC(=O)OCc1nc(N=[N+]=[N-])n(C)c1COC(=O)NC",
    "GI50": "> 10 µM (inactive)"
  },
  {
    "molecule": "O=C1C(CO)=C(CO)C(=O)c2c(O)ccc(O)c21",
    "GI50": "0.394 µM (active)"
  },
  {
    "molecule": "CC1C(=O)N(c2ccccc2)NC12CCCc1ccccc12 (centres undefined)",
    "GI50": "> 100 µM (inactive)"
  },
  {
    "molecule": "COc1ccc(/C=C(/C)[N+](=O)[O-])cc1",
    "GI50": "2.48 µM (inactive)"
  },
  {
    "molecule": "COc1ccc(C2N(NC(=O)c3ccncc3)C(=O)CS2(=O)=O)cc1F (centres undefined)",
    "GI50": "> 100 µM (inactive)"
  },
  {
    "molecule": "O=C(O)CN(c1ccccc1)S(=O)(=O)c1ccc([N+](=O)[O-])cc1",
    "GI50": "> 100 µM (inactive)"
  },
  {
    "molecule": "COc1ccc(Oc2nc3ccc(C(F)(F)F)cc3nc2-c2ccccc2)cc1",
    "GI50": "> 100 µM (inactive)"
  },
  {
    "molecule": "Cc1cc2c(cc1C)C(=O)c1ncccc1C2=O",
    "GI50": "7 µM (inactive)"
  },
  {
    "molecule": "C=C(C)C1CC=C(C)C(O)([C@@]2(O)C[C@H](C(=C)C)CC=C2C)C1 (some centres undefined)",
    "GI50": "14.8 µM (inactive)"
  },
  {
    "molecule": "C=CCC1=C2CCCCC2CCC1=O (centres undefined)",
    "GI50": "> 100 µM (inactive)"
  },
  {
    "molecule": "O=C1CCC(c2ccccc2)=NN1c1nsc2ccccc12",
    "GI50": "> 100 µM (inactive)"
  },
  {
    "molecule": "C=C1[C@@H](O)C[C@@]23CC[C@@H]4[C@@]5(C)CC[C@@H](OC(C)=O)C(C)(C)[C@@H]5C[C@@H](OC5OC(COC(C)=O)C(O)C(O)C5O)[C@@]4(C)C2=CC[C@H]3[C@H]1C (some centres undefined)",
    "GI50": "4 µM (inactive)"
  },
  {
    "molecule": "CCCCCCCCCCCCCCCC[N+](C)(C)Cc1ccc(C[N+](C)(C)CCCCCCCCCCCCCCCC)cc1",
    "GI50": "6.12 µM (inactive)"
  },
  {
    "molecule": "CCCCCCCC(=O)NCC(O)CNC(=O)CCCCCCC",
    "GI50": "> 100 µM (inactive)"
  }
]
